mass density: recorded values
- MEASUREMENT_CONDITIONS: 298.15 K; 101 kPa; Liquid; Vibrating tube method
± gives the expanded uncertainty stated by the source.
RESULT_TYPE: mass density

In [3]: df
Out[3]:
     smiles_input                              test_value
0          ClCCCl                    1245.59 ± 0.81 kg/m3
1    CC(Cl)(Cl)Cl                    1328.24 ± 0.93 kg/m3
2         CCCCCCl                      877.09 ± 0.8 kg/m3
3          CCCCCl                     881.17 ± 0.81 kg/m3
4         ClCCCCl                     1180.1 ± 0.81 kg/m3
5  ClC(Cl)C(Cl)Cl                     1588.23 ± 2.3 kg/m3
6       ClC(Cl)Cl                    1473.42 ± 0.99 kg/m3
7        ClCCCCCl                     1133.94 ± 0.8 kg/m3
8   C[N+](=O)[O-]  1130.9 ± 0.93 kg/m3 [middle of 5 runs]

----------
- MEASUREMENT_CONDITIONS: 318.15 K; 101 kPa; Liquid; Vibrating tube method
mass density below 1000 kg/m3 gives N; mass density at or above it gives Y.

In [3]: df
Out[3]:
     smiles_input  discrete_label
0          ClCCCl               Y
1          CCCCCl               N
2         ClCCCCl               Y
3       ClC(Cl)Cl               Y
4         CCCCCCl               N
5  ClC(Cl)C(Cl)Cl               Y
6        ClCCCCCl               Y
7    CC(Cl)(Cl)Cl               Y

----------
mass density: recorded values
- MEASUREMENT_CONDITIONS: 308.15 K; 101 kPa; Liquid; Vibrating tube method
RESULT_TYPE: mass density (kg/m3)

>>> print(df.to_string())
     smiles_input   result_type  test_value
0         CCCCCCl  mass density      866.97
1    CC(Cl)(Cl)Cl  mass density     1311.45
2  ClC(Cl)C(Cl)Cl  mass density     1572.66
3        ClCCCCCl  mass density        1123
4       ClC(Cl)Cl  mass density     1454.33
5          CCCCCl  mass density         870
6         ClCCCCl  mass density      1167.7
7          ClCCCl  mass density     1230.96

The reported numbers originate from the NIST ThermoML archive (doi:10.1021/je3013342).
